// reported IC50 per item
Test system: 2102EP cells
Experiment: XTT cell viability assay, 2102EP
Assay type: cell-based, human
Conditions: Homo sapiens, 24 h

Here's what some known entries look like.
• CC(C)(C)c1cnc(CSc2cnc(NC(=O)C3CCN(CC(=O)NCCOCCOCCOCCNc4cccc5c4C(=O)N(C4CCC(=O)NC4=O)C5=O)CC3)s2)o1 (stereo not drawn) = 164 nM
• CN(C)C/C=C/C(=O)Nc1ccc(C(=O)N2CCC[C@@H](Nc3ncc(Cl)c(-c4c[nH]c5ccccc45)n3)C2)cc1 = > 1000 nM

Now look at this entry.
Req: Name the recorded IC50 for CN1CC[C@H](c2c(O)cc(O)c3c(=O)cc(-c4ccccc4Cl)oc23)[C@H](O)C1 .
Resp: > 1000 nM

The origin of these recorded values is paper PMC8997165.
